system: Saccharomyces cerevisiae; experiment: protein stability index of tFT-peptide fusion (C-terminal peptide) (PSI (0-1 scale)); higher = more stable (slower turnover); conditions: genetic background: wild type; temperature: 30 C
MEASURED PROPERTY: protein stability index

Here is how some sequences turned out for protein stability index.
VFGDFAIGGLSG    0.711
IEFPQGRKTTQS    0.629
VFAFVVFLHFEC    0.31

Provide the reported protein stability index of each entry below, same order.
1. HPPLLPPPTPTS
2. THLDKLYPKEHT
3. GGGGVVGVVRVG
4. PPPALVPRPPPR
5. EHQNHNTARKRH

1: 0.752; 2: 0.689; 3: 0.658; 4: 0.679; 5: 0.698

###

system: Saccharomyces cerevisiae; assay: protein stability index of tFT-peptide fusion (C-terminal peptide) (PSI (0-1 scale)); higher = more stable (slower turnover); conditions: genetic background: cdc53-1; temperature: 37 C
Give measured protein stability index for each item. Keep answers brief.
Answers are plain numbers.

CKYCKCVVLLWS    0.605
VKGYISLLLVLI    0.332
ETYCLPRVASGI    0.733
PPLTRVPLSISA    0.465
LKKTLNGRRKMI    0.73

Provide the reported protein stability index of each entry below, same order.
1. IILAIRLLVDTL
2. RFKEKVSIIHKQ
3. ASVCLNVIYQLV

0.179
0.665
0.451

Provide the reported protein stability index of each entry below, same order.
1. GFNIFFFFFFFV
2. SLFPHIFFFFFA
3. LGVCLFFVRCWS
4. AFFRCKCYVGTP
5. RVGWVVVLGCVG
6. FWWVGCGWCRWG
7. CFVICVCLCFGR
8. LSQPGWFKCCLS

0.223
0.467
0.205
0.584
0.548
0.73
0.363
0.737

###

tested on: Saccharomyces cerevisiae; test: protein stability index of tFT-peptide fusion (C-terminal peptide) (PSI (0-1 scale)); higher = more stable (slower turnover); settings: genetic background: wild type; temperature: 30 C
Give measured protein stability index for each item. Keep answers brief.
Answers are plain numbers.

Here is how some sequences turned out for protein stability index.
PKRGGLFGFGRL [JIP4 C-terminal 12 aa]    0.762
EIIDNWEKYEQS [FAS1 C-terminal 12 aa]    0.7
DNQPWQLARCGR [HRT1 C-terminal 12 aa]    0.718
DLEGVLWRSYYA [BLM10 C-terminal 12 aa]    0.711
KINKNGLLENIL [IES3 C-terminal 12 aa]    0.723
KKTAIDKLITLL [AIM18 C-terminal 12 aa]    0.342

Provide the reported protein stability index of each entry below, same order.
1. HKSLKLAKKDKK [AGE1 C-terminal 12 aa]
2. QSQYPDVGIPAI [YAR023C C-terminal 12 aa]
3. GAPANKRPRRGL [SMD1 C-terminal 12 aa]
4. FFSRVKSFKDPG [HRT3 C-terminal 12 aa]
5. KSTNCCLIYDST [KKQ8 C-terminal 12 aa]
6. LPFGCVDDVNRQ [MSK1 C-terminal 12 aa]

[0.738, 0.669, 0.737, 0.688, 0.675, 0.719]

###

tested on: Saccharomyces cerevisiae; test: protein stability index of tFT-peptide fusion (C-terminal peptide) (PSI (0-1 scale)); higher = more stable (slower turnover); conditions: genetic background: wild type; temperature: 37 C
Rule: MET for protein stability index not less than 0.5, NOT MET for anything less.

Answered cases to consult:
GVAVVWVGLGVT    NOT MET
GRGLGHWWTVRT    MET
GFPFLFILYFLC    NOT MET
PCYRPPLPALLS    MET
GGSKIGFTVGGG    MET

Please check the record SLALLFSFLLFL and state if its protein stability index is at or above 0.5. MET

// same read-out, input: FCTSSRLLYCSA NOT MET

###

test system: Saccharomyces cerevisiae; test: protein stability index of tFT-peptide fusion (C-terminal peptide) (PSI (0-1 scale)); higher = more stable (slower turnover); details: genetic background: wild type; temperature: 30 C
MEASURED PROPERTY: protein stability index
One number for each entry.

ETRKINELRAKK    0.642
DFKHKYREKKKF    0.615
LQRPDHPTPTPP    0.712
GFPFLCSFLLAS    0.382

Provide the reported protein stability index of each entry below, same order.
1. GELCGHSRALHG
2. WLVGGGTVAHSP
3. VRNKFSYVLRLN
4. KSGVWLWVGGGG
5. LCLLPVCLWDVG
6. QRKLTFIKRYRV

[0.676, 0.77, 0.179, 0.714, 0.461, 0.67]

###

system: Saccharomyces cerevisiae; assay: protein stability index of tFT-peptide fusion (C-terminal peptide) (PSI (0-1 scale)); higher = more stable (slower turnover); settings: genetic background: wild type; temperature: 30 C
Rule: YES for protein stability index not less than 0.3, NO for anything less.

VCVLRWAVAPCR    NO

Field: next sequence
Please check the record VLLSFVFCGWVR and state if its protein stability index is at or above 0.3. YES

###

Give measured protein stability index for each item. Keep answers brief.
test system: Saccharomyces cerevisiae; experiment: protein stability index of tFT-peptide fusion (C-terminal peptide) (PSI (0-1 scale)); higher = more stable (slower turnover); conditions: genetic background: wild type; temperature: 30 C
Numbers only.

GVVRKLCHWVVA    0.426
LRPLPPPAPCKF    0.774
CFLFSFSLFPFV    0.618
VPRFTPYRAIFP    0.591
GMRFDTERKWLL    0.695
NYVFALFYMVVA    0.254

Provide the reported protein stability index of each entry below, same order.
1. LPATLPPPPAPP
2. PVLPRPNTQSRS
3. LDVCDGVSGVRS
4. TLPVKAGHWRLG
5. PREYGSYHNYHS
6. IKSKFILKTRPM
7. ICTHPCLRLRLN

0.705
0.694
0.647
0.731
0.592
0.691
0.165

Provide the reported protein stability index of each entry below, same order.
1. LQTLDVFTTMKL
2. GARPRSGVRGGT
3. DENEKIKKVKVK
4. IERGLMLTLCVH
5. FFSRFCYGFGRM
6. CGEGGVCRLVFS
7. LLCTSSGYWAWK

1. 0.58
2. 0.723
3. 0.754
4. 0.22
5. 0.723
6. 0.682
7. 0.699

Provide the reported protein stability index of each entry below, same order.
1. GIYCSFSCKPCP
2. FAAKASVLRMRR
3. GGGVHRAVRPGN
4. SEAHMGWRGGEK
5. RICCLFILLFCL
6. FGEAFYVGCVHV
7. GSSTINRVDLKR

1: 0.67; 2: 0.605; 3: 0.653; 4: 0.643; 5: 0.423; 6: 0.698; 7: 0.662

Provide the reported protein stability index of each entry below, same order.
1. CPLLSCAAFLSS
2. LAFFEFVVDSLG
3. FLLFASPPPRPL
4. RHYLWAECGSSE
5. HFGSSLPPFCCI
6. VSWVWMGRLGYC
7. RFETKERGIREK

[0.719, 0.677, 0.715, 0.709, 0.76, 0.657, 0.719]

Provide the reported protein stability index of each entry below, same order.
1. IVRENGKDVGVG
2. GMAKGWHCESSS

1. 0.506
2. 0.716

Provide the reported protein stability index of each entry below, same order.
1. PADAPPPTRPEA
2. SRESTPDSHTMS

[0.724, 0.726]

Provide the reported protein stability index of each entry below, same order.
1. MCWFDVSEWGLG
2. RGSSWSRVAGDG
3. FNLWCRQLASIE
4. WPCVGWTLCSCS
5. PPPSPALPLPPY
6. LGRCRQTERETS
7. RCVGVTNESTGT

0.754
0.631
0.327
0.541
0.712
0.649
0.661

Provide the reported protein stability index of each entry below, same order.
1. PSLHRPPLLPCP
2. CMYTILRHKINN
3. RVCLVVWRECWF
4. PLMKHSHSSLPF
5. AGVECADRVLWG
6. PLPSVPESPAPP
7. QYGMSSQGGGHN
8. NKKKNKKKNKKK

1: 0.674; 2: 0.296; 3: 0.509; 4: 0.702; 5: 0.774; 6: 0.693; 7: 0.731; 8: 0.676

###

Give measured protein stability index for each item. Keep answers brief.
tested on: Saccharomyces cerevisiae; assay: protein stability index of tFT-peptide fusion in deletion strain of DOA10 (PSI (0-1 scale)); higher = more stable (slower turnover)

Here is how some sequences turned out for protein stability index.
RWLRVLLPLYFR    0.682
GLYMCSVGSWFR    0.69
RSLRVLLSLYFR    0.643
RSLRVLLPLYFM    0.42
GLYMHSVGCWFR    0.706
GLYMCSVGCWFRN    0.584
RVTLLDAIYFRI    0.662
AITLPMCPLLLRD    0.65

Provide the reported protein stability index of each entry below, same order.
1. CLVSCPILLFFR
2. CLVSLPNLLFFR

[0.578, 0.685]
